Tested on: Plasmodium berghei
assay name: Luciferase/luciferin-expressing antifolate-resistant parasites were used to infect a culture of HepG2 cells that were pre-incubated with compounds. Infected hepatocytes emit light due to the luciferase reaction. Assay results are presented as the percent inhibition of light emission compared to control. […]
Format: functional
details: sporozoite, PBLUC_HILL_SLOPE 1.56, PBLUC_R_SQUARED 0.316, read-out: LUCIFERASE INFECTION ASSAY - IC50
measurement kind: pIC50
Quick note: pIC50 values are minus log10 of concentrations in mol/L.

Req: Note down pIC50 recorded for `Cc1ccc(SCc2ccc(-c3nc4ccccc4s3)cc2)cc1`
Resp: 5.36

* * *

Test system: Plasmodium berghei
assay name: Luciferase/luciferin-expressing antifolate-resistant parasites were used to infect a culture of HepG2 cells that were pre-incubated with compounds. Infected hepatocytes emit light due to the luciferase reaction. Assay results are presented as the percent inhibition of light emission compared to control. […]
Assay type: functional
details: sporozoite, HEPG2TOX_HILL_SLOPE 1.44, HEPG2TOX_R_SQUARED 0.951, PBLUC_HILL_SLOPE 2.71, PBLUC_R_SQUARED 0.798, read-out: LUCIFERASE INFECTION ASSAY - IC50
measurement kind: IC50 (nM)
Write the answer as a number in nM, unit excluded.

Req: Recall the reported IC50 of `COc1ccc(Nc2ccn3ncc(-c4ccc(OC)c(OC)c4)c3n2)cn1` on Plasmodium berghei and write it down.
Resp: 768

* * *

System: Plasmodium berghei
assay name: Luciferase/luciferin-expressing antifolate-resistant parasites were used to infect a culture of HepG2 cells that were pre-incubated with compounds. Infected hepatocytes emit light due to the luciferase reaction. Assay results are presented as the percent inhibition of light emission compared to control. […]
Assay type: functional
details: sporozoite, HEPG2TOX_HILL_SLOPE 9.62, 4.07, HEPG2TOX_R_SQUARED 0.967, 0.574, PBLUC_HILL_SLOPE 16.5, 9.41, PBLUC_R_SQUARED 0.287, 0.470, read-out: LUCIFERASE INFECTION ASSAY - IC50
measurement kind: pIC50
Quick note: pIC50 values are minus log10 of concentrations in mol/L.

Req: Note down pIC50 recorded for `CCN1C/C(=C/c2cc(Cl)c(OC(C)C)c(OC)c2)C(=O)/C(=C/c2cc(Cl)c(OC(C)C)c(OC)c2)C1`
Resp: 5.54

* * *

Test system: Plasmodium berghei
assay name: Luciferase/luciferin-expressing antifolate-resistant parasites were used to infect a culture of HepG2 cells that were pre-incubated with compounds. Infected hepatocytes emit light due to the luciferase reaction. Assay results are presented as the percent inhibition of light emission compared to control. […]
Assay type: functional
details: sporozoite, PBLUC_HILL_SLOPE 16.6, PBLUC_R_SQUARED 0.228, read-out: LUCIFERASE INFECTION ASSAY - IC50
measurement kind: pIC50
Quick note: pIC50 values are minus log10 of concentrations in mol/L.

Req: Note down pIC50 recorded for `CN(Cc1ccc(C(=O)NC2CC2)cc1)S(=O)(=O)c1ccc(Br)s1`
Resp: 5.08

* * *

Tested on: Plasmodium berghei
assay name: Luciferase/luciferin-expressing antifolate-resistant parasites were used to infect a culture of HepG2 cells that were pre-incubated with compounds. Infected hepatocytes emit light due to the luciferase reaction. Assay results are presented as the percent inhibition of light emission compared to control. […]
Assay type: functional
details: sporozoite, read-out: LUCIFERASE INFECTION ASSAY - IC90
For each entry below, report its IC90 value.
Write the answer as a number in µM, unit excluded.

Req: Note down IC90 recorded for `Clc1cccc(CNc2ncnc3sccc23)c1`
Resp: 9.83

Req: Note down IC90 recorded for `NC(=O)c1ccc(-c2cc(-c3ccccc3Oc3ccccc3)cnc2N)cc1`
Resp: 2.98

Req: Note down IC90 recorded for `COc1ccccc1-n1c(SCCn2c([N+](=O)[O-])cnc2C)nc2sc3c(c2c1=O)CCCC3`
Resp: 4.01

Req: Note down IC90 recorded for `COc1cc(/C=C/C(=O)Nc2ccc3c(c2)nc2n3CCCCC2)ccc1OS(=O)(=O)c1ccc(C)cc1`
Resp: 8.3

Req: Note down IC90 recorded for `O=C(CSc1nnc(-c2ccccc2)o1)Nc1ncc(Cl)cc1Cl`
Resp: 1.2

Req: Note down IC90 recorded for `Cc1ccccc1-n1c(SCC(=O)NC2CCCCC2)nc(O)cc1=O`
Resp: 3.36

Req: Note down IC90 recorded for `O=C(NC1CC1)c1ccc(-c2cnc3c(Nc4cccc(OC(F)(F)C(F)F)c4)nccn23)cc1`
Resp: 2.49

Req: Note down IC90 recorded for `CC(C)Cn1c(N)c(C(=O)COC(=O)c2cc(-c3cccs3)nc3ccccc23)c(=O)n(C)c1=O`
Resp: 3.23

# credit: ChEMBL document CHEMBL4483862
